tgt: T1, human CD19 (human, UniProt P15391 20-291, biotinylated in the Biacore assay of Table 11)
T1 construct: also called isolated CD19; Human CD19 Protein
T1 sequence (looked up): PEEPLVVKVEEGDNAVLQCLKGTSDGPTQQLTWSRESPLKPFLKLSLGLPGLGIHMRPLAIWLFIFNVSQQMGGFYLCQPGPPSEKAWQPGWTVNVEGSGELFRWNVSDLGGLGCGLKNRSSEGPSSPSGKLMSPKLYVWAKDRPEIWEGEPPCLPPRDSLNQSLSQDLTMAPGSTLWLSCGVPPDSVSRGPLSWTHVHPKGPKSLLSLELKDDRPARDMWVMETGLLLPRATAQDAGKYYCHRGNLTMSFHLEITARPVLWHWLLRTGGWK
testName: SPR Biacore 8K, captured biotinylated CD19, scFv with disulfide bond as analyte
valueType: koff

binder	reportedMeasurement
CNG-CD19-707 VL-VH scFv with disulfide bond (scFv) EIVLTQSPATLSLSPGERATLSCSASSSVGYMHWYQQKPGQAPRLLIYDTSKLASGIPARFSGSGSGTDFTLTISSLEPEDFAVYYCFQGSVYPFTFGCGTKLEIKGGGGSGGGGSGGGGSQVQLQESGPGLVKPSQTLSLTCTVSGGSISTSTMGVGWIRQHPGKCLEWIGFIWWDDDKRYNPNLKSRVTMSVDTSKNQFSLKLSSVTAADTAVYYCARMELWSYYFDPWGQGTLVTVSS	2e-05 s⁻¹
CNG-CD19-103 VL-VH scFv with disulfide bond (scFv) DIVMTQTPLSLSVTPGQPASISCKSSQSLETATGTTYLNWYLQKPGQSPQLLIYRVSRRFSGVPDRFSGSGSGTDFTLKISRVEAEDVGVYYCLQLLEDPYSFGCGTKLEIKGGGGSGGGGSGGGGSQVQLVQSGAEVKKPGASVKVSCKASGYTFTDYIMHWVRQAPGQCLEWMGYINPYNDGSKYTEKFQGRVTMTSDTSISTAYMELSRLRSDDTAVYYCARGTYYYGPQLFDYWGQGTTVTVSS	4.85e-05 s⁻¹
CNG-CD19-101 VL-VH scFv with disulfide bond (scFv, Cys at position 44 of VH and 100 of VL already in the entry; also called scFv with Cys substitutions) scFv: DIVMTQTPLSLSVTPGQPASISCKSSQSLETTTGTTYLNWYLQKPGQSPQLLIYRASKRFSGVPDRFSGSGSGTDFTLKISRVEAEDVGVYYCLQLLEDPYTFGCGTKLEIKGGGGSGGGGSGGGGSQVQLVQSGAEVKKPGASVKVSCKASGYDFTDYIMHWVRQAPGQCLEWMGYINPYNDGSKYTDKFQERVTMTSDTSISTAYMELSRLRSDDTAVYYCARGTYYYGPELFDYWGQGTTVTVSS	4.88e-05 s⁻¹
CNG-CD19-710 VL-VH scFv with disulfide bond (scFv) EIVLTQSPATLSLSPGERATLSCSASSSFSYMHWYQQKPGQAPRLLIYDTSKLASGIPARFSGSGSGTDFTLTISSLEPEDFAVYYCFQGSVYPFTFGCGTKLEIKGGGGSGGGGSGGGGSQVQLQESGPGLVKPSQTLSLTCTVSGVSISTSSMGVGWIRQHPGKCLEWIGHAWWDDDKRYNPALKSRVTISVDTSKNQFSLKLSSVTAADTAVYYCARMELWSYYFDPWGQGTLVTVSS	2.54e-05 s⁻¹
CNG-CD19-701 VL-VH scFv with disulfide bond (scFv) EIVLTQSPATLSLSPGERATLSCSASSSVGYMHWYQQKPGQAPRLLIYDTSKLASGIPARFSGSGSGTDFTLTISSLEPEDFAVYYCFQGSVYPFTFGCGTKLEIKGGGGSGGGGSGGGGSQVQLQESGPGLVKPSQTLSLTCTVSGGSISTSTMGVGWIRQHPGKCLEWIGFIWWDDDKRYNPNLKSRVTMSVDTSKNQFSLKLSSVTAADTAVYYCARMELWSYYFDYWGQGTLVTVSS	2e-05 s⁻¹
